pIC50: −log10 of the molar value.
Please find below pIC50 measurements for UniProt:P05089, combined from several publications.

In the examples that follow, each entry is paired with its recorded pIC50.
N[C@@]1(C(=O)O)CN(C2CCC(C(=O)O)CC2)C[C@@H]1CCCB(O)O (stereo partly drawn): 6.00 to 6.60
N[C@@]1(C(=O)O)CN(C(=O)C2Cc3ccc(Cl)cc3CN2)C[C@@H]1CCCB(O)O (stereo partly drawn): 6.60 to 10.00
NC(CCCCB(O)O)(C(=O)O)[C@H]1C[C@@H](N2Cc3ccccc3C2)C1 (stereo partly drawn): 6.30 to 7.00
CNC[C@@H]1C[C@@H](CCCB(O)O)[C@@H](C(=O)O)N1: 7.46
N[C@](CCCCB(O)O)(CCN1Cc2ccccc2C1)C(=O)O: 6.30 to 7.00
NC(CCCCB(O)O)(C(=O)O)[C@H]1C[C@@H](NCc2ccc(-c3ccc(Cl)cc3)c(F)c2)C1 (mixture of isomers): 7.00 to 7.59

Look up and state reported pIC50 for N[C@@]1(C(=O)O)CN(C2CCNCC2)C[C@@H]1CCCB(O)O 6.00 to 6.60

Look up and state reported pIC50 for NC(CCCCB(O)O)(C(=O)O)[C@H]1C[C@@H](NCCCc2ccc(C(F)(F)F)cc2)C1 (stereo partly drawn) 7.60 to 10.00

Look up and state reported pIC50 for C[C@@H]1C[C@@H](CCCB(O)O)[C@@H](C(=O)O)N1 8.18

Look up and state reported pIC50 for NC(CCCCB(O)O)(C(=O)O)[C@H]1C[C@@H](NCc2ccccc2-c2ccc(Cl)cc2)C1 (stereo partly drawn) 7.00 to 7.59

Look up and state reported pIC50 for O=C(O)C1CNCCC1CCCB(O)O (stereo not drawn) 4.24

Look up and state reported pIC50 for N[C@@]1(C(=O)O)C[C@@H](CNC2Cc3ccccc3C2)C[C@@H]1CCCB(O)O 7.00 to 7.59

Look up and state reported pIC50 for NC(CCCCB(O)O)(C(=O)O)[C@H]1C[C@@H](NCc2cccc(-c3ccc(Cl)cc3)c2)C1 (stereo partly drawn) 7.60 to 10.00

Look up and state reported pIC50 for CC1(C)N[C@H](C(=O)O)[C@](C)(CCCB(O)O)[C@@H]1O < 5.00

Look up and state reported pIC50 for NC(CCCCB(O)O)(C(=O)O)[C@H]1C[C@@H](NCC2CCN(c3ccc(C(F)(F)F)cc3)CC2)C1 (mixture of isomers) 7.60 to 10.00

Look up and state reported pIC50 for O=C(O)C1(CCN2CCCCC2)NCCCC1CCCB(O)O (stereo not drawn) 6.40

Look up and state reported pIC50 for NC(=O)[C@@]1(CCCB(O)O)CCN[C@@H]1C(=O)O 6.54

Look up and state reported pIC50 for NCCN1C[C@H](CCCB(O)O)[C@](N)(C(=O)O)C1 6.60 to 10.00

Look up and state reported pIC50 for N[C@@]1(C(=O)O)C[C@@H](CNCc2ccc(-c3ccc(Cl)cc3)cc2)C[C@@H]1CCCB(O)O 7.00 to 7.59

Look up and state reported pIC50 for NCC[C@H]1C[C@H](CCCB(O)O)[C@](N)(C(=O)O)C1 (racemic) 6.60 to 10.00

Look up and state reported pIC50 for NCC1CN[C@H](C(=O)O)C1CCCB(O)O (stereo partly drawn) 5.46

Look up and state reported pIC50 for NC(CCCCB(O)O)(C(=O)O)[C@H]1C[C@@H](NCc2ccc(-c3ccccc3F)c(F)c2)C1 (mixture of isomers) 7.00 to 7.59

Look up and state reported pIC50 for CNC(CCCCB(O)O)(CCN1CCc2ccccc2C1)C(=O)O (stereo not drawn) 6.30 to 7.00

Look up and state reported pIC50 for NC[C@@]1(CCCB(O)O)CN[C@@H]1C(=O)O 8.10

Look up and state reported pIC50 for C[C@@]1(CCCB(O)O)[C@@H](CN)CN[C@@H]1C(=O)O 7.07

Look up and state reported pIC50 for CNC[C@@]1(CCCB(O)O)CCN[C@@H]1C(=O)O 8.15

Look up and state reported pIC50 for CNC(CCCCB(O)O)(C(=O)O)[C@H]1C[C@@H](N)C1 (stereo partly drawn) 6.30 to 7.00
